meta.source: paper PMC3326523

Molecular target: T1, EP300 bromodomain (human, UniProt Q09472 1040-1161)
T1 construct: the crystallised construct may differ; also called KAT3B; source: E. coli BL21(DE3), purified (Ni-NTA, TEV, SEC)
T1 sequence: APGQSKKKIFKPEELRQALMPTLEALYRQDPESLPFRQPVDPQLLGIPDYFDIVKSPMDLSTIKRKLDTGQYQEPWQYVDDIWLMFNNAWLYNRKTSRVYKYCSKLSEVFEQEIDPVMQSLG
Assay: ITC; peptide (mM stock) titrated into bromodomain (about 50 μM), by the concentrations in the tables; 10 or 15°C, 50 mM HEPES pH 7.5, 150 mM NaCl; single binding site model
Conditions: both partners purified
Where no end group is shown, it is not given here.
Recorded pKd, one value per entry.
Formally, pKd is defined as -log10 of the concentration c, with c in mol/L.

| Binder | pKd |
| --- | --- |
| GGVK(Ac)RISGLI (histone H4, human; source: synthetic peptide) [H4K44 peptide GGVKacRISGLI] | 3.88 |

Please examine the following record next.
## Task # input binder: GTVALREIRRYQK(Ac)S (histone H3, human; source: synthetic peptide) [H3K56 peptide GTVALREIRRYQKacS] ; wanted: its pKd
## Result 4.87
